Target: Mushroom tyrosinase (mushroom, UniProt C7FF04 1-392)
Sequence (C7FF04 1-392): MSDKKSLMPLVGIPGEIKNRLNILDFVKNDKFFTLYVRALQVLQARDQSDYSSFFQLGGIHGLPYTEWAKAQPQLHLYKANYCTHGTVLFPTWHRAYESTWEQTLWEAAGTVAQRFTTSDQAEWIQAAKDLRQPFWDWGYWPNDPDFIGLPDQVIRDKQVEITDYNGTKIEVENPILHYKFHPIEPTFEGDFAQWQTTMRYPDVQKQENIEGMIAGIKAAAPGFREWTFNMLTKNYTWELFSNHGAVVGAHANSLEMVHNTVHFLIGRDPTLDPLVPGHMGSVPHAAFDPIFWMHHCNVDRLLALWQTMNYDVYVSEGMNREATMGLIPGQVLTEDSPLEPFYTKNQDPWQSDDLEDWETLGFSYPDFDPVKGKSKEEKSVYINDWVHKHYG
Assay: cell-based or functional assay
Measurement kind: IC50 [µM], mushroom tyrosinase inhibition (dopachrome OD 475 nm, L-tyrosine substrate) (µM)
The reply should contain only the number, in µM.

Which IC50 [µM], mushroom tyrosinase inhibition (dopachrome OD 475 nm, L-tyrosine substrate) value is on record for RRYWYWRR (Synthetic octapeptide) [P18 peptide] ?
282

Which IC50 [µM], mushroom tyrosinase inhibition (dopachrome OD 475 nm, L-tyrosine substrate) value is on record for RRVAL [P13 peptide] ?
2200

Which IC50 [µM], mushroom tyrosinase inhibition (dopachrome OD 475 nm, L-tyrosine substrate) value is on record for RRRYWYYR (Synthetic octapeptide) [P17 peptide] ?
398

Which IC50 [µM], mushroom tyrosinase inhibition (dopachrome OD 475 nm, L-tyrosine substrate) value is on record for RRWWRRYY (Synthetic octapeptide) [P16 peptide] ?
238

Which IC50 [µM], mushroom tyrosinase inhibition (dopachrome OD 475 nm, L-tyrosine substrate) value is on record for RRFVLL [P14 peptide] ?
1770
